- ASSAY SYSTEM: MMP-13 (Homo sapiens, UniProt P45452)
- Construct: purchased GenzymeTechne
- PROTOCOL TEXT: MMP-13 inhibitory activity (fluorogenic peptide substrate enzyme assay)
- Type: biochemical
- MEASUREMENT CONDITIONS: compound 1 μM; substrate Cy3-PLGLK(Cy5Q)AR-NH2; 37° C., 40 min; read-out: MMP-13 activity inhibitory rate (%)
Would you kindly list inhibition at 1 µM for each of these compounds?
Quick reminder: number only, in %, skip the unit.

Look up and report measured inhibition at 1 µM for this entry: COc1cccc(CNC(=O)c2nc3sccc3c(=O)[nH]2)c1
94

Look up and report measured inhibition at 1 µM for this entry: O=C(O)c1ccc(COCc2csc3nc(C(=O)NCc4ccc(F)c(Cl)c4)[nH]c(=O)c23)cc1
96

Look up and report measured inhibition at 1 µM for this entry: COc1cccc(CNC(=O)c2nc3ccc(F)c(OCCc4ccc(C(=O)O)cc4)c3c(=O)[nH]2)c1
99

Look up and report measured inhibition at 1 µM for this entry: Cc1cc(CNC(=O)c2nc3scc(COCc4ccc(C(=O)O)cc4)c3c(=O)[nH]2)ccc1F
98

Look up and report measured inhibition at 1 µM for this entry: CCOc1cccc(CNC(=O)c2nc3scc(COCc4ccc(C(=O)O)cc4)c3c(=O)[nH]2)c1
93

Look up and report measured inhibition at 1 µM for this entry: COc1cccc(CNC(=O)c2nc3ccccc3c(=O)[nH]2)c1
91
